TEST_NAME: Calculation of AUC value (plasma concentration after oral administration)
Format: in vivo
CONDITION: BALB/c (nu/nu), mouse, in vivo, mice, 100 mg/kg body weight, plasma 15 min to 24 h, trapezoidal method, read-out: AUC (area under the blood concentration-time curve)
MEASURE_NAME: AUC (µM·h)

CNS(=O)(=O)Nc1cccc(Cc2c(C)c3ccc(OC(=O)N(C)C)cc3oc2=O)n1 [Compound 1j-1-13-2]    314

---

System: human colon cancer cell line HCT116
TEST_NAME: Measurement of cell proliferation inhibitory activity (Cell Counting Kit-8)
Type: cell-based
CONDITION: Homo sapiens, HCT-116, 96 h; HCT116, 4 days incubation, Table 1-2; read-out: IC50 (50% proliferation inhibitory concentration)
pIC50: −log10 of the molar value.
MEASURE_NAME: pIC50

CNS(=O)(=O)Nc1nccc(Cc2c(C)c3cc(Cl)c(Oc4ncccn4)cc3oc2=O)c1F [Compound 1j-2-18-2]    8.23
CNS(=O)(=O)Nc1nccc(Cc2c(C)c3cc(C)c(Oc4nccs4)cc3oc2=O)c1F [Compound 1j-3-19-2]    8.82
CNS(=O)(=O)Nc1cc(Cc2c(C)c3cc(Cl)c(Oc4nccs4)cc3oc2=O)ccn1 [Compound 1j-3-12-2]    7.91
CNS(=O)(=O)Nc1cc(Cc2c(C)c3ccc(OC(=O)N(C)C)cc3oc2=O)ccn1 [Compound 1j-1-10-2]    7.50
CCS(=O)(=O)Nc1cccc(Cc2c(C)c3cc(Cl)c(Oc4ncccn4)cc3oc2=O)c1 [Comp. 1, reference compound]    6.80
CNS(=O)(=O)Nc1nccc(Cc2c(C)c3cc(C)c(Oc4nccs4)cc3oc2=O)c1Cl [Compound 1j-3-44-2]    7.89
CNS(=O)(=O)Nc1cccc(Cc2c(C)c3ccc(Oc4nccs4)cc3oc2=O)c1F [Compound 1j-3-4-2]    7.96

---

System: human colon cancer cell line HCT116
TEST_NAME: Measurement of cell proliferation inhibitory activity (Cell Counting Kit-8)
Format: cell-based
CONDITION: Homo sapiens, HCT-116, 96 h; HCT116, 4 days incubation, Table 2; read-out: IC50 (50% proliferation inhibitory concentration)
pIC50: −log10 of the molar value.
MEASURE_NAME: pIC50

CNS(=O)(=O)Nc1cccc(Cc2c(C)c3cc(C)c(Oc4nccs4)cc3oc2=O)c1    7.01
CNS(=O)(=O)Nc1cccc(Cc2c(C)c3cc(F)c(Oc4ncccn4)cc3oc2=O)c1F    7.12
CNS(=O)(=O)Nc1nccc(Cc2c(C)c3ccc(Oc4ncccn4)cc3oc2=O)c1F    7.39

---

TEST_NAME: Calculation of AUC value (plasma concentration after oral administration)
Format: in vivo
CONDITION: BALB/c (nu/nu), mouse, mice, 200 mg/kg body weight (Comp. 1), plasma 15 min to 24 h, trapezoidal method, read-out: AUC (area under the blood concentration-time curve)
MEASURE_NAME: AUC (µM·h)

CCS(=O)(=O)Nc1cccc(Cc2c(C)c3cc(Cl)c(Oc4ncccn4)cc3oc2=O)c1 [Comp. 1, reference compound]    97.6

---

Tested on: human colon cancer cell line HCT116
TEST_NAME: Measurement of cell proliferation inhibitory activity (Cell Counting Kit-8)
Type: cell-based
CONDITION: Homo sapiens, HCT-116, 96 h; HCT116, 4 days incubation, Table 2; read-out: IC50 (50% proliferation inhibitory concentration)
pIC50: −log10 of the molar value.
Could you label it TRUE if measured pIC50 is 7 or higher, and FALSE otherwise?

CNS(=O)(=O)Nc1cccc(Cc2c(C)c3ccc(Oc4ncccn4)cc3oc2=O)c1F    TRUE
CNS(=O)(=O)Nc1cccc(Cc2c(CF)c3ccc(Oc4ncccn4)cc3oc2=O)c1F    FALSE
CNS(=O)(=O)Nc1cccc(Cc2c(C)c3ccc(OC(=O)N(C)C)cc3oc2=O)n1    FALSE
CNS(=O)(=O)Nc1cc(Cc2c(C)c3cc(Cl)c(Oc4ncccn4)cc3oc2=O)ccn1    FALSE
CNC(=O)CS(=O)(=O)Nc1cccc(Cc2c(C)c3ccc(Oc4nccs4)cc3oc2=O)c1F    FALSE
